# Test system: T47D
# Protocol Text: NCI tumour cell line growth inhibition, 48 h
Calls of active or inactive are those of the source. No stated cut-off is given here; in the data, active = GI50 up to about 1.1 µM and inactive = higher.
Reported Endpoint: GI50

# Compound, Observed Measurement
records = [
    ("CC1(O)Oc2ccc3ccccc3c2C=C1C(N)=O (centres undefined)", "36.6 µM (inactive)"),
]

Let us move to another entry and its GI50.
Request: Look at this compound and give its reported GI50. COc1ccc(/C=N/n2cnc3[nH]c(C)c(Cc4ccccc4)c3c2=N)cc1
Result: 30.1 µM (inactive)

====

# Tested on: M14
# Protocol Text: NCI tumour cell line growth inhibition, 48 h
Activity calls are given as the source filed them. Cut-off read from the data, not from the text of the source: active = GI50 up to about 1.1 µM and inactive = higher.
Reported Endpoint: GI50

# Compound, GI50
records = [
    ("C[N+](C)(C)CC(=O)N/N=C(\\Cc1nc2ccc([N+](=O)[O-])cc2nc1O)C(=O)Nc1nc2ccc([N+](=O)[O-])cc2s1", "55.1 µM (inactive)"),
    ("COc1ccc(OCc2ccc3nc(-c4ccccc4)c(Cl)nc3c2)cc1", "33.9 µM (inactive)"),
    ("O=C1NC2CCCCC2NC1=C(C(=O)c1ccccc1)C(=O)c1ccccc1 (configuration not stated)", "66.4 µM (inactive)"),
]

Request: Look at this compound and give its reported GI50. NC(=O)c1ccc(S(=O)(=NS(=O)(=O)c2ccccc2)c2ccc(C(N)=O)cc2)cc1
Result: > 100 µM (inactive)

Request: Look at this compound and give its reported GI50. O=C(/C=C/c1c(O)ccc2ccccc12)c1ccccc1
Result: > 100 µM (inactive)

Request: Look at this compound and give its reported GI50. C[C@]12CC[C@H]3[C@@H](CCC4=CC(=O)C=C[C@@]43OC(=O)C(F)(F)F)[C@@H]1CCC2=O
Result: > 100 µM (inactive)

Request: Look at this compound and give its reported GI50. CC(=O)OC1CC2c3cccc4c3C(CC2N(C)C1=O)CN4C(=O)c1ccccc1 (configuration not stated)
Result: 22.1 µM (inactive)
